Tested on: S. aureus 048S
Assay type: cell-based, Staphylococcus aureus
Conditions: clinical strain, broth microdilution, 0.5 × 10^5 CFU/mL, 18 h, 37 °C, at least triplicate
Where no end group is shown, it is not given here.
// MIC lookup, one value per entry
Quick reminder: number only, in µg/mL, skip the unit.

Examples with answers:
KWKLFKKIGAVLKVL-NH2 [CAMEL Cl^−]
4
KWKLFKKIGAVLKVL-NH2 [CAMEL TFA^−]
4
FLPLIGRVLSGIL-NH2 [Temporin A Cl^−]
4
GLFDVIKKVASVIGGL-NH2 [Citropin 1.1 Cl^−]
16
GLFDVIKKVASVIGGL-NH2 [Citropin 1.1 TFA^−]
16

Field MIC (S. aureus 048S), entry KWKLFKKIGAVLKVL-NH2 [CAMEL AcO^−] : 4

Tested on S. aureus 048S, the item GLFDVIKKVASVIGGL-NH2 [Citropin 1.1 AcO^−] showed MIC equal to 16
